procedure.summary: qHTS of pediatric cancer cell lines to identify multiple opportunities for drug repurposing: Primary screen for RD cells (AID 1347104); note: nearly all actives have a fitted effect of over 55% in size
measurement.conditions: RD rhabdomyosarcoma viability, CellTiter-Glo luminescence, 48 h; series mostly up to 46 µM
Inconclusive results are not listed. The source made the active and inactive calls. Calls come from the whole dose curve; as a rule, active = well fitted cell-killing curve with a large enough effect; inconclusive = small, poorly fitted or top-dose-only effect; inactive = flat fitted curve, though single readings scatter.
The reply should name one outcome from True for active, False for inactive

>>> assigned_category("COc1ccc2nc(S(=O)Cc3ncc(C)c(OC)c3C)[nH]c2c1 (centres undefined)")
"False"
>>> assigned_category("C[C@@H]1CN(Cc2ccc(F)cc2)[C@@H](C)CN1C(=O)c1cc2c(C(=O)C(=O)N(C)C)cn(C)c2cc1Cl")
"True"
>>> assigned_category("CCOC(=O)N1CCC(=C2c3ccc(Cl)cc3CCc3cccnc32)CC1")
"True"
>>> assigned_category("Nc1cccc(S(=O)(=O)N2CCCN(S(=O)(=O)c3ccc4c(c3)OCCO4)CC2)c1")
"False"
>>> assigned_category("CC(C[N+](C)(C)C)OC(N)=O (centres undefined)")
"False"

Would you mind telling me which call this test gave `O=c1ncn2nc(Sc3ccc(F)cc3F)ccc2c1-c1c(Cl)cccc1Cl` ? False

# lookup: test call for `Nc1nc2ccc(OC(F)(F)F)cc2s1` False

What call does the record list for `C[C@]12CCC(=O)C=C1CC[C@@H]1[C@@H]2[C@@H](O)C[C@@]2(C)[C@H]1CC[C@]2(O)C(=O)CO` ? False

Could you kindly confirm the outcome this assay logged for `COc1ccc([C@@H]2CC(=O)c3c(O)cc(O[C@@H]4O[C@H](CO[C@@H]5O[C@@H](C)[C@H](O)[C@@H](O)[C@@H]5O)[C@@H](O)[C@H](O)[C@@H]4O)cc3O2)cc1O` ? False

For this compound, state the assay outcome: `c1ccc(-c2nn3c(c2-c2ccnc4cc(OCCN5CCOCC5)ccc24)CCC3)nc1` False

---

Let's look at some compounds and their measured viability.
procedure.summary: Quantitative High-Throughput drug screen in 47 multiple myeloma cell lines against the NCATS MIPE library collection: SKMM1_PLB cell viability assay (AID 1919863); note: nearly all actives have a fitted effect of over 35% in size
measurement.conditions: SKMM1 myeloma viability, CellTiter-Glo ATP, 48 h; stronger effect = lower value
Inconclusive results are not listed.
Provide the reading as a plain figure in %.

Record excerpt, results attached:
>>> reading("O=C(O)[C@@H](c1ccc(OCc2ccc3ccccc3n2)cc1)C1CCCC1")
106
>>> reading("CCN(CC)CCCC(C)Nc1nc(C)cc(Nc2ccc3nc(C)cc(N)c3c2)n1 (stereo not drawn)")
123
>>> reading("O=C(C=Cc1ccc(/C=C/C(=O)Nc2ccc(C3=NCCN3)cc2)cc1)Nc1ccc(C2=NCCN2)cc1")
118
>>> reading("Nc1ccc(S(=O)(=O)Nc2ccnn2-c2ccccc2)cc1")
145
>>> reading("Cc1c(CCOc2ccc(C(=O)O)cc2)c2cc(Cl)ccc2n1C(c1ccccc1)c1ccccc1")
110

Entry `CCOc1cc(C=C2C(=O)N(c3ccccc3)N=C2C)cc(Cl)c1OCC(=O)OC` : reported viability = ? 106

I am curious: what viability value has been reported for `CCCS(=O)(=O)Nc1ccc(F)c(C(=O)c2c[nH]c3ncc(Cl)cc23)c1F` ? 122

Give its viability value. Item: `Fc1ccc(Cl)cc1-c1nc(Nc2ccncc2)c2nccnc2n1` 120

What does the data say about its viability? Entry: `CCCCNc1cc(C(=O)O)cc(S(N)(=O)=O)c1Oc1ccccc1` 158

Entry `O=C(O)CCc1ccc(NCc2cccc(Oc3ccccc3)c2)cc1` has what viability? 111

Please give the measured viability for this compound: `CC(C)OC(=O)C1=CN(C(=O)c2ccc(F)c(F)c2)CC(C)(C)c2c1[nH]c1ccccc21` 104

# lookup: viability of `CN1CCN(CCCN2c3ccccc3Sc3ccc(C(F)(F)F)cc32)CC1` 123

What value of viability has been reported for the following compound? `c1ccc([C@H]2CN3CCSC3=N2)cc1` 159

# query: viability of entry `COc1ccc(-c2c(-c3ccc(O)cc3O)n[nH]c2C)cc1` 137

Please report the recorded viability for `OCCC#Cc1nc(-c2ccc(F)cc2)c(-c2ccncc2)n1CCCc1ccccc1` . 114

Sample `CNC(=O)c1ccc(C)c(-n2c(C)cc(OCc3ccc(F)cc3F)c(Br)c2=O)c1` — what was its viability? 116

Which viability value belongs to `O=NN(CCCl)C(=O)NCCCl` ? 118

Item under review: `Nc1cccc(S(=O)(=O)N2CCCN(S(=O)(=O)c3ccc4c(c3)OCCO4)CC2)c1` . Reported viability? 103

Requested read-out: viability. Entry: `CS(=O)(=O)c1ccc(C(=O)Nc2ccc(Cl)c(-c3ccccn3)c2)c(Cl)c1` 129

Look at this compound and give its reported viability. `CCC(=O)N[C@H]1CC[C@H](C(=O)N(C)c2ccc(-c3nc4ccccc4o3)cc2)C1` 132

# get_value(readout='viability', item= Cc1c(C)c2c(c(C)c1O)CCC(C)(COc1ccc(CC3SC(=O)NC3=O)cc1)O2 (stereo not drawn) ) 114

---

procedure.summary: qHTS for differential inhibitors of proliferation of Plasmodium falciparum line D10 (AID 1877);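 note: parasites grown with compound for 72 h before DNA staining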
measurement.conditions: series mostly up to 28.7 µM
Results filed as inconclusive are left out. Calls of active or inactive are those of the source. The call rests on the fitted dose curve; in most records, active means well fitted curve in the direction sought with a large enough effect; inconclusive means small, poorly fitted or top-dose-only effect, or another doubt; inactive means no such curve, though single readings can be large or run the other way.
Permitted responses: active, inactive

Example entries and their recorded answers appear below.
>>> assigned_category("NC(=O)c1cnccn1")
"inactive"
>>> assigned_category("CCN(CC)CCCC(C)Nc1ccnc2cc(Cl)ccc12 (stereo not given)")
"active"

I'd appreciate the recorded outcome for `c1ccc([C@H]2CN3CCSC3=N2)cc1` from this test. inactive

Hi, sorry to bother you, what did the test record for CC(C)NCC(O)COc1ccc(COCCOC(C)C)cc1 (stereo not given) ? inactive

What was the test verdict on CC(C[N+](C)(C)C)OC(N)=O (stereo not given) ? inactive

Outcome? `NC[C@H](O)c1ccc(O)c(O)c1` inactive

Would you mind telling me which call this test gave `CN1CCN(CCCN2c3ccccc3Sc3ccc(C(F)(F)F)cc32)CC1` ? active

Dear colleague, could you share the recorded outcome for `NS(=O)(=O)c1cc2c(cc1Cl)NC=NS2(=O)=O` when you have a moment? inactive

Dear all, I need the recorded test outcome for `Nc1nc2c(ncn2COCCO)c(=O)[nH]1` , thank you. inactive

Please share the test call associated with Cc1ccccc1C(OCCN(C)C)c1ccccc1 (stereo not given) . inactive

---

procedure.summary: Identifying Small Molecule Inhibitors of Pancreatic Cancer Stem Cells (SN12C, Spheroid) (AID 1259360)
measurement.conditions: SN12C spheroid viability; series mostly up to 46.1 µM
Records with an inconclusive call do not appear. Active and inactive are the calls of the source. Calls follow the shape of the dose curve; as a rule, active = well fitted cell-killing curve with a large enough effect; inconclusive = small, poorly fitted or top-dose-only effect, or effect the other way; inactive = flat fitted curve, though single readings scatter.
# valid calls are Y for active, N for inactive; nothing else

Consider the worked cases shown below.
>>> assigned_category("CC(C)OC(=O)C1=CN(C(=O)c2ccc(F)c(F)c2)CC(C)(C)c2c1[nH]c1ccccc21")
"N"
>>> assigned_category("Cc1c(C)c2c(c(C)c1O)CCC(C)(COc1ccc(CC3SC(=O)NC3=O)cc1)O2 (stereo not drawn)")
"N"
>>> assigned_category("O=C(c1cc(Cc2n[nH]c(=O)c3ccccc23)ccc1F)N1CCN(C(=O)C2CC2)CC1")
"Y"
>>> assigned_category("CC(=O)NC(C)c1ccc(Oc2ccc(OC(C)C)cc2)cc1 (stereo not drawn)")
"N"
>>> assigned_category("OC(CN1CCC(Cc2ccc(F)cc2)CC1)c1ccc(Cl)cc1 (stereo not drawn)")
"N"

Now look at this entry.
What was the test verdict on `NC(=O)c1ccc(-c2nc(-c3ccc4c(c3)OCO4)c(-c3ccccn3)[nH]2)cc1` ? N

---

assay.system: D(1A) dopamine receptor (Homo sapiens) (UniProt P21728)
Sequence (P21728 whole entry, looked up): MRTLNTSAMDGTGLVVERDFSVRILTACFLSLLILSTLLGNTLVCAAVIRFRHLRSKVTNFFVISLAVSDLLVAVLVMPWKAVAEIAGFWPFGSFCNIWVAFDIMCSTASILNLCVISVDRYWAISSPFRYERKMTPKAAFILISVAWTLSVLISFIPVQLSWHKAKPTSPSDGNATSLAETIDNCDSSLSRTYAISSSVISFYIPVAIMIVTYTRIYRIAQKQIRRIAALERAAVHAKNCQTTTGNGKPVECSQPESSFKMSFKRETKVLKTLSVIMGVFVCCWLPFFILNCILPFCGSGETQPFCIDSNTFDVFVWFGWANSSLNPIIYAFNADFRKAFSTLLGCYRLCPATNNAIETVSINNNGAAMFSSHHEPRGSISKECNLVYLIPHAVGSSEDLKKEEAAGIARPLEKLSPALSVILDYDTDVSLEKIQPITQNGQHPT
procedure.summary: HTS Assay for Allosteric Agonists of the Human D1 Dopamine Receptor: Primary Screen for Agonists (AID 488981); note: 0% is about no effect
measurement.conditions: Inducible HEK293 T-REx D1 cells, calcium-flux fluorescence, 180 s kinetic; series mostly up to 41.8 µM
Inconclusive results are not listed. Activity calls are given as the source filed them. Calls follow the shape of the dose curve; as a rule, active = well fitted activation curve with a large enough effect; inconclusive = small, poorly fitted or top-dose-only effect; inactive = flat fitted curve, though single readings scatter.
reported.property: outcome

>>> reading("CNC[C@H](O)c1cccc(O)c1")
"inactive"
>>> reading("Nc1ccc(S(=O)(=O)Nc2ccnn2-c2ccccc2)cc1")
"inactive"
>>> reading("Cn1cnc([N+](=O)[O-])c1Sc1ncnc2nc[nH]c12")
"inactive"
>>> reading("CCC(C)N(C)C(=O)c1cc2ccccc2c(-c2ccccc2Cl)n1 (stereo unspecified)")
"inactive"
>>> reading("Cc1ccccc1C(OCCN(C)C)c1ccccc1 (stereo unspecified)")
"inactive"

API: value(readout=outcome, system=D(1A) dopamine receptor (Homo sapiens) (UniProt P21728)) for record `O=c1[nH]cnc2[nH]ncc12` inactive

Give D(1A) dopamine receptor (Homo sapiens) (UniProt P21728) outcome for `Cc1oncc1C(=O)Nc1ccc(C(F)(F)F)cc1` inactive

Checklist item: outcome tested on D(1A) dopamine receptor (Homo sapiens) (UniProt P21728), entry `N[C@@H]1CONC1=O` , value? inactive
